Origin of values: the supplement of paper PMC5908809

Tested on: NKL (IL-2 2.5 ng/mL);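 further: normalised to DMSO-only wells as negative and benzethonium chloride as positive control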
Experiment: percent inhibition of viability; higher = more inhibition
Conditions: 72 h; 100 nM
Readout: percent inhibition of viability (%)
Return type: number; implicit unit %.

Example entries and their recorded answers appear below.
COc1cc(N2CCN(C)CC2)ccc1Nc1nccc(-c2cn(C)c3cnccc23)n1 [AZ191] (max concentration tested 10000 nM) = 1.16
O=C(NOC[C@H](O)CO)c1ccc(F)c(F)c1Nc1ccc(I)cc1F (max concentration tested 1000 nM) = 41.5
COc1cc2ncnc(Oc3cccc(NC(=O)Nc4cc(C(C)(C)C(F)(F)F)on4)c3)c2cc1OC (max concentration tested 10000 nM) = 15.8
CO[C@H]1C[C@@H]2CC[C@@H](C)[C@@](O)(O2)C(=O)C(=O)N2CCCC[C@H]2C(=O)O[C@H]([C@H](C)C[C@@H]2CC[C@@H](O)[C@H](OC)C2)CC(=O)[C@H](C)/C=C(\C)[C@@H](O)[C@@H](OC)C(=O)[C@H](C)C[C@H](C)/C=C/C=C/C=C/1C [Sirolimus] (max concentration tested 100 nM) = 68.7

// switching to the query compound
For the compound COc1cc2nccc(Oc3ccc(NC(=O)C4(C(=O)Nc5ccc(F)cc5)CC4)cc3)c2cc1OC [Cabozantinib] (max concentration tested 1000 nM) , report percent inhibition of viability. -6.13
